- test name: total protein half-life in vivo (active degradation + dilution); higher = more stable protein
- condition description: wild type E. coli NCM3722; growth: C-lim chemostat; doubling time 6 h
experimental endpoint: total protein half-life in vivo (h)
// units = h; emit number, no label

Dear colleague, I am looking for the recorded total protein half-life in vivo of the following sequence: MTISELLQYCMAKPGAEQSVHNDWKATQIKVEDVLFAMVKEVENRPAVSLKTSPELAELLRQQHSDVRPSRHLNKAHWSTVYLDGSLPDSQIYYLVDASYQQAVNLLPEEKRKLLVQL [P0AF50]
4.69

Dear colleague, I am looking for the recorded total protein half-life in vivo of the following sequence: METRREERIGQLLQELKRSDKLHLKDAAALLGVSEMTIRRDLNNHSAPVVLLGGYIVLEPRSASHYLLSDQKSRLVEEKRRAAKLAATLVEPDQTLFFDCGTTTPWIIEAIDNEIPFTAVCYSLNTFLALKEKPHCRAFLCGGEFHASNAIFKPIDFQQTLNNFCPDIAFYSAAGVHVSKGATCFNLEELPVKHWAMSMAQKHVLVVDHSKFGKVRPARMGDLKRFDIVVSDCCPEDEYVKYAQTQRIKLMY [P0ACK5]
6.23

Dear colleague, I am looking for the recorded total protein half-life in vivo of the following sequence: MMYHIPGVLSPQDVARFREQLEQAEWVDGRVTTGAQGAQVKNNQQVDTRSTLYAALQNEVLNAVNQHALFFAAALPRTLSTPLFNRYQNNETYGFHVDGAVRSHPQNGWMRTDLSATLFLSDPQSYDGGELVVNDTFGQHRVKLPAGDLVLYPSSSLHCVTPVTRGVRVASFMWIQSMIRDDKKRAMLFELDNNIQSLKSRYGESEEILSLLNLYHNLLREWSEI
4.86

Dear colleague, I am looking for the recorded total protein half-life in vivo of the following sequence: MIISAASDYRAAAQRILPPFLFHYMDGGAYSEYTLRRNVEDLSEVALRQRILKNMSDLSLETTLFNEKLSMPVALAPVGLCGMYARRGEVQAAKAADAHGIPFTLSTVSVCPIEEVAPAIKRPMWFQLYVLRDRGFMRNALERAKAAGCSTLVFTVDMPTPGARYRDAHSGMSGPNAAMRRYLQAVTHPQWAWDVGLNGRPHDLGNISAYLGKPTGLEDYIGWLGNNFDPSISWKDLEWIRDFWDGPMVIKGILDPEDARDAVRFGADGIVVSNHGGRQLDGVLSSARALPAIADAVKGDIAILADSGIRNGLDVVRMIALGADTVLLGRAFLYALATAGQAGVANLLNLIEKEMKVAMTLTGAKSISEITQDSLVQGLGKELPAALAPMAKGNAA
3.76

Dear colleague, I am looking for the recorded total protein half-life in vivo of the following sequence: MKLTIIRLEKFSDQDRIDLQKIWPEYSPSSLQVDDNHRIYAARFNERLLAAVRVTLSGTEGALDSLRVREVTRRRGVGQYLLEEVLRNNPGVSCWWMADAGVEDRGVMTAFMQALGFTAQQGGWEKC
6.2

Dear colleague, I am looking for the recorded total protein half-life in vivo of the following sequence: MIKRNLPLMITIGVFVLGYLYCLTQFPGFASTRVICNILTDNAFLGIIAVGMTFVILSGGIDLSVGSVIAFTGVFLAKVIGDFGLSPLLAFPLVLVMGCAFGAFMGLLIDALKIPAFIITLAGMFFLRGVSYLVSEESIPINHPIYDTLSSLAWKIPGGGRLSAMGLLMLAVVVIGIFLAHRTRFGNQVYAIGGNATSANLMGISTRSTTIRIYMLSTGLATLAGIVFSIYTQAGYALAGVGVELDAIASVVIGGTLLSGGVGTVLGTLFGVAIQGLIQTYINFDGTLSSWWTKIAIGILLFIFIALQRGLTVLWENRQSSPVTRVNIAQQ
6.05

Dear colleague, I am looking for the recorded total protein half-life in vivo of the following sequence: MINDIKWVQAQRKATDWRQAVEIATRPLVAYGAAQPCYVNGIIENTLNWGPYYLIAPGIALPHARPEQGANYNQVSITTLRTPVAFGNEECDPVWLLLCVSATDANAHILTIQRISQFIDSPQRLTAVGNASTDDALFALVSG
4.65

Dear colleague, I am looking for the recorded total protein half-life in vivo of the following sequence: MSNTYQKRKASKEYGLYNQCKKLNDDELFRLLDDHNSLKRISSARVLQLRGGQDAVRLAIEFCSDKNYIRRDIGAFILGQIKICKKCEDNVFNILNNMALNDKSACVRATAIESTAQRCKKNPIYSPKIVEQSQITAFDKSTNVRRATAFAISVINDKATIPLLINLLKDPNGDVRNWAAFAININKYDNSDIRDCFVEMLQDKNEEVRIEAIIGLSYRKDKRVLSVLCDELKKNTVYDDIIEAAGELGDKTLLPVLDTMLYKFDDNEIITSAIDKLKRS [P0ADK6]
3.9

Dear colleague, I am looking for the recorded total protein half-life in vivo of the following sequence: MLKIIRAGMYTTVQDGGRHGFRQSGISHCGALDMPALRIANLLVGNDANAPALEITLGQLTVEFETDGWFALTGAGCEARLDDNAVWTGWRLPMKAGQRLTLKRPQHGMRSYLAVAGGIDVPPVMGSCSTDLKVGIGGLEGRLLKDGDRLPIGKSKRDSMEAQGVKQLLWGNRIRALPGPEYHEFDRASQDAFWRSPWQLSSQSNRMGYRLQGQILKRTTDRELLSHGLLPGVVQVPHNGQPIVLMNDAQTTGGYPRIACIIEADMYHLAQIPLGQPIHFVQCSLEEALKARQDQQRYFEQLAWRLHNEN
5.73

Dear colleague, I am looking for the recorded total protein half-life in vivo of the following sequence: MSNKNVNVRKSQEITFCLLAGILMFMAMMVAGRAEAGVALGATRVIYPAGQKQEQLAVTNNDENSTYLIQSWVENADGVKDGRFIVTPPLFAMKGKKENTLRILDATNNQLPQDRESLFWMNVKAIPSMDKSKLTENTLQLAIISRIKLYYRPAKLALPPDQAAEKLRFRRSANSLTLINPTPYYLTVTELNAGTRVLENALVPPMGESTVKLPSDAGSNITYRTINDYGALTPKMTGVME
5.55

Dear colleague, I am looking for the recorded total protein half-life in vivo of the following sequence: MSTLRLLISDSYDPWFNLAVEECIFRQMPATQRVLFLWRNADTVVIGRAQNPWKECNTRRMEEDNVRLARRSSGGGAVFHDLGNTCFTFMAGKPEYDKTISTSIVLNALNALGVSAEASGRNDLVVKTVEGDRKVSGSAYRETKDRGFHHGTLLLNADLSRLANYLNPDKKKLAAKGITSVRSRVTNLTELLPGITHEQVCEAITEAFFAHYGERVEAEIISPNKTPDLPNFAETFARQSSWEWNFGQAPAFSHLLDERFTWGGVELHFDVEKGHITRAQVFTDSLNPAPLEALAGRLQGCLYRADMLQQECEALLVDFPEQEKELRELSAWMAGAVR
5.88
